# TEST NAME: chemical genetic growth profiling, strain panel (AID 1159580);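 also: tested at 20 µM; growth read once vehicle control cultures reached saturation at 30 °C; 1 = growth at the plate median or of vehicle wells; lower values mean less growth of the strain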
# EXPERIMENTAL SETUP: S. cerevisiae deletion strains, growth OD, locus YER015W, strain faa2, stronger effect = lower value
The whole screen tested about 5,500 compounds, of which about 2,000 (36%) were called active. Inconclusive results (about 18%) are left out. This is one part of the list.
MEASUREMENT LABEL: normalized growth
Give your answer as a number; write no unit.

Examples from the recorded data:
molecule=O=C(O)c1cc(=O)c2ccccc2[nH]1 measurement_label="normalized growth" value_measured=0.984
molecule="CC(C)c1cc2c(c(O)c1O)[C@@]1(C(=O)O)CCCC(C)(C)C1CC2 (some centres undefined)" measurement_label="normalized growth" value_measured=0.987
molecule=CC1=C(C(=O)O)N2C(=O)[C@@H](NC(=O)[C@@H](N)c3ccc(O)cc3)[C@H]2SC1 measurement_label="normalized growth" value_measured=1.01
molecule="Oc1cc2c(cc1O)C(c1ccccc1)CNCC2 (centres undefined)" measurement_label="normalized growth" value_measured=1.02
molecule="COC(=O)C[C@H]1C(C)(C)[C@@H](OC(C)=O)[C@@H]2CC3=C4CC(=O)O[C@@H](c5ccoc5)[C@]4(C)CCC3[C@@]1(C)C2=O (some centres undefined)" measurement_label="normalized growth" value_measured=1

Query: Item `CNC(=O)N(C)c1nnc(C(C)(C)C)s1` has what recorded normalized growth?
Response: 0.99

Query: Item `CCCc1ncc(C[n+]2ccccc2C)c(N)n1` has what recorded normalized growth?
Response: 0.992

Query: Item CC(C)C1CCC(C(=O)N[C@@H](Cc2ccccc2)C(=O)O)CC1 (some centres undefined) has what recorded normalized growth?
Response: 0.986

Query: Item C[N+]12CCC(CC1)C(OC(=O)C(O)(c1ccccc1)c1ccccc1)C2 (centres undefined) has what recorded normalized growth?
Response: 0.987

###

# TEST NAME: chemical genetic growth profiling, strain panel (AID 1159580);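 also: tested at 20 µM; growth read once vehicle control cultures reached saturation at 30 °C; 1 = growth at the plate median or of vehicle wells; lower values mean less growth of the strain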
# EXPERIMENTAL SETUP: S. cerevisiae deletion strains, growth OD, locus YLR133W, strain CKI1
The whole screen tested about 5,500 compounds, of which about 2,000 (36%) were called active. Not shown: some 18% with an inconclusive outcome. Rule as the data show it: active = normalized growth mostly below about 0.91 (no sharp cut-off); inconclusive = no clear call, values can overlap the other calls; inactive = mostly above about 0.92. This is one part of the list.
Your response should consist of one outcome taken from True for active, False for inactive

Answered cases to consult:
compound=O=C(Nc1ccc(F)cc1F)c1cc(Cl)ccc1O class_name=False
compound=S=C(NCc1cccs1)Nc1cc(Cl)cc(Cl)c1 class_name=False
compound=O=C(Nc1ccc(F)cc1)c1cc(Br)ccc1O class_name=False
compound=COc1ccc(OC)c2nc3c(nc12)C(=O)c1ccccc1-3 class_name=False
compound=O=C1c2ccccc2C(=O)c2sccc21 class_name=True
compound="C=CCC1C(=O)N(S(=O)(=O)c2ccc(Cl)cc2)N=C1CCC (stereo not drawn)" class_name=False
compound=COc1ccc(Oc2ccc([N+](=O)[O-])cc2C(=O)O/N=C(/N)c2ccc(C(F)(F)F)cc2)cc1 class_name=False

# input for lookup
Query: How was CCOC(=O)C(O)(c1ccc(NC(=O)c2ccc(Cl)c(Cl)c2)cc1)C(F)(F)F (stereo not drawn) classified in this test?
Response: False

###

# TEST NAME: chemical genetic growth profiling, strain panel (AID 1159580);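 also: tested at 20 µM; growth read once vehicle control cultures reached saturation at 30 °C; 1 = growth at the plate median or of vehicle wells; lower values mean less growth of the strain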
# EXPERIMENTAL SETUP: S. cerevisiae deletion strains, growth OD, locus YEL061C, strain CIN8 (second series), stronger effect = lower value
The campaign covered roughly 5,500 compounds. About 2,000 (36%) were called active. Inconclusive results (about 18%) are left out. Some of the results follow.
Each entry below lists one item and its recorded normalized growth value.
Give your answer as a number; write no unit.

Examples from the recorded data:
compound="CC(=CC1CCC(C)C2CCC(C)=C12)C(=O)O (stereo not given)" measurement_label="normalized growth" value_measured=0.947
compound="CC(C)c1cc2c(c(O)c1O)[C@@]1(C(=O)O)CCCC(C)(C)C1CC2 (stereo not given in full)" measurement_label="normalized growth" value_measured=0.993
compound=O=C(O)c1cc(=O)c2ccccc2[nH]1 measurement_label="normalized growth" value_measured=0.993

Query: Item `Cn1c(=O)[nH]c2ncn(C)c2c1=O` has what recorded normalized growth?
Response: 0.959

Query: Item `Cn1c(=O)c2c(ncn2C)n(C)c1=O` has what recorded normalized growth?
Response: 0.977

Query: Item CNC(C)[C@@H]1CC[C@@H](N)[C@@H](OC2[C@@H](N)C[C@@H](N)[C@H](OC3OC[C@](C)(O)[C@H](NC)[C@H]3O)[C@H]2O)O1 (stereo not given in full) has what recorded normalized growth?
Response: 0.982
